- Target System: GluN1/GluN2B-F114AzF receptors (Rattus norvegicus (GluN1-1a); Mus musculus (GluN2B), UniProt P35439+Q01097)
- Sequence (Q01097 27-1482, other chains not shown): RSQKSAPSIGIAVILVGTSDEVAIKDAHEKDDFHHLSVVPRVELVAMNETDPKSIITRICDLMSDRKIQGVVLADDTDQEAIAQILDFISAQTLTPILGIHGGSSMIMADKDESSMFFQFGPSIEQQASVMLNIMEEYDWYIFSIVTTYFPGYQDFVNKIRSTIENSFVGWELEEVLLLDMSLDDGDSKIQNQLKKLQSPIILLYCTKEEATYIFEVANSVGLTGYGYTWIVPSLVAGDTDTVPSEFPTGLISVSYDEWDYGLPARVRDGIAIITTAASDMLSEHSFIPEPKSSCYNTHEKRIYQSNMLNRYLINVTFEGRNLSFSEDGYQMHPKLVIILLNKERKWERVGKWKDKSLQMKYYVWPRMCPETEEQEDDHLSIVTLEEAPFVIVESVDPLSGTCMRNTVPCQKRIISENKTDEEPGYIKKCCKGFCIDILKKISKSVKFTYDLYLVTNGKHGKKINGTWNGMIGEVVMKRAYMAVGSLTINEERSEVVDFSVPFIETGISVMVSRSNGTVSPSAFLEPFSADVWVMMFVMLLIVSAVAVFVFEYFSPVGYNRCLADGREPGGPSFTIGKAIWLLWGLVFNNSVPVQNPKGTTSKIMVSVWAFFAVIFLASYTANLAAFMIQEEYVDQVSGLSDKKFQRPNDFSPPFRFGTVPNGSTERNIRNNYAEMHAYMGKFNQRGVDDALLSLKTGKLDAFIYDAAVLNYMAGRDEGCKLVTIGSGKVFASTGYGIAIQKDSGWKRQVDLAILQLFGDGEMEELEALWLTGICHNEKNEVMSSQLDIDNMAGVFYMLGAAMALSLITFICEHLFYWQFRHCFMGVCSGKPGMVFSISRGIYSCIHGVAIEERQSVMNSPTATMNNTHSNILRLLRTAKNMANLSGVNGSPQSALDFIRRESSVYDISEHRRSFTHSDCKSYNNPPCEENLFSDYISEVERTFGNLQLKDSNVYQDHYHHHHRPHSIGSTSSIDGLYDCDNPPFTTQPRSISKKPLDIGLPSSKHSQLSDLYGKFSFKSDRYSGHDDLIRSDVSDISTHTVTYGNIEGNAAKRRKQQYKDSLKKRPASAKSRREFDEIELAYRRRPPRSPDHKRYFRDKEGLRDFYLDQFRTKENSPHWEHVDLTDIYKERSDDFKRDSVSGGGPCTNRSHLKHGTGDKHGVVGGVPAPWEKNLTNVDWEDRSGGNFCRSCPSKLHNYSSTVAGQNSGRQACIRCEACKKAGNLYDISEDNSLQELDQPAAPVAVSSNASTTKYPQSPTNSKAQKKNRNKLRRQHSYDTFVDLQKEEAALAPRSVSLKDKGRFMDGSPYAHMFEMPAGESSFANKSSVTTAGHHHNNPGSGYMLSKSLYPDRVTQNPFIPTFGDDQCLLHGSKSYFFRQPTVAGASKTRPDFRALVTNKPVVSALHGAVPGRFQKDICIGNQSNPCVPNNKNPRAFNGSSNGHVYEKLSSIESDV
- Assay Summary: Ifenprodil and Zn2+ inhibition dose-response, TEVC in Xenopus laevis oocytes
- Type: cell-based
- Test Conditions: F114AzF mutant, after UV
Observation Type: pIC50
Here pIC50 is given on a logarithmic scale as minus log10 of the concentration in mol/L.

IN: So what's the measured pIC50 for this one? [Cl-].[Cl-].[Zn+2] [Zn^2+, ZnCl2]
OUT: 5.76

====

- Target System: wt GluN1/GluN2B receptors (UniProt P35439+Q01097)
- Sequence (Q01097 27-1482, other chains not shown): as above
- Assay Summary: Ifenprodil and Zn2+ inhibition dose-response, TEVC in Xenopus laevis oocytes
- Type: cell-based, rat GluN1-1a, mouse GluN2B
- Test Conditions: before UV
Observation Type: IC50 (nM)
The response must be a number in nM with no trailing unit.

IN: So what's the measured IC50 for this one? [Cl-].[Cl-].[Zn+2]
OUT: 580
